meta.source: patent US11780832B2

List of MIC values.
Test system: Klebsiella pneumoniae KPC-2
Field: numeric (µg/mL). Do not append units.

Example results:
molecule	assayedTarget	unitsText	MIC
Nc1nc(/C(=N/OC2(C(=O)O)CC3CCC(C2)O3)C(=O)N[C@H]2CON(C3(C(=O)O)C[C@H](N4C(=O)c5cc(O)c(O)cc5C4=O)C(=O)O3)C2=O)cs1 (stereo partly drawn)	Klebsiella pneumoniae KPC-2	µg/mL	0.25
CN1CCC(O/N=C(\C(=O)N[C@H]2CON(C3(C(=O)O)C[C@H](N4C(=O)c5cc(O)c(O)cc5C4=O)C(=O)O3)C2=O)c2csc(N)n2)(C(=O)O)CC1 (stereo partly drawn)	Klebsiella pneumoniae KPC-2	µg/mL	0.25
Nc1nc(/C(=N/OC2(C(=O)O)CCC(F)(Cl)CC2)C(=O)N[C@H]2CON(C3(C(=O)O)C[C@H](N4C(=O)c5cc(O)c(O)cc5C4=O)C(=O)O3)C2=O)cs1 (stereo partly drawn)	Klebsiella pneumoniae KPC-2	µg/mL	0.03
Nc1nc(/C(=N/OC2(C(=O)O)CNC2)C(=O)N[C@H]2CON(C3(C(=O)O)C[C@H](N4C(=O)c5cc(O)c(O)cc5C4=O)C(=O)O3)C2=O)cs1 (stereo partly drawn)	Klebsiella pneumoniae KPC-2	µg/mL	0.5
CC(C)(O/N=C(\C(=O)N[C@H]1CON(C2(C(=O)O)C[C@H](N3C(=O)c4cc(O)c(O)nc4C3=O)C(=O)O2)C1=O)c1csc(N)n1)C(=O)O (stereo partly drawn)	Klebsiella pneumoniae KPC-2	µg/mL	0.12
Nc1nc(/C(=N/OC2(C(=O)O)COC2)C(=O)N[C@H]2CON(C3(C(=O)O)C[C@H](N4C(=O)c5cc(O)c(O)cc5C4=O)C(=O)O3)C2=O)cs1 (stereo partly drawn)	Klebsiella pneumoniae KPC-2	µg/mL	0.06
CC(C)(O/N=C(\C(=O)N[C@H]1CON(C2(C(=O)O)C[C@H](N3Cc4cc(O)c(O)cc4C3=O)C(=O)O2)C1=O)c1csc(N)n1)C(=O)O (stereo partly drawn)	Klebsiella pneumoniae KPC-2	µg/mL	0.12
Nc1nc(/C(=N/OC2(C(=O)O)CCOCC2)C(=O)N[C@H]2CON(C3(C(=O)O)C[C@H](N4C(=O)c5cc(O)c(O)nc5C4=O)C(=O)O3)C2=O)cs1 (stereo partly drawn)	Klebsiella pneumoniae KPC-2	µg/mL	0.0149

Fill blank: measured MIC of the molecule Nc1nc(/C(=N/OC2(C(=O)O)CCOCC2)C(=O)N[C@H]2CON(C3(C(=O)O)C[C@H](N4C(=O)c5cc(O)c(O)cc5C4=O)C(=O)O3)C2=O)cs1 (stereo partly drawn) is ____.
0.12

How about this molecule: Nc1nc(/C(=N/OC2(C(=O)O)CCC(Cl)(Cl)CC2)C(=O)N[C@H]2CON(C3(C(=O)O)C[C@H](N4C(=O)c5cc(O)c(O)cc5C4=O)C(=O)O3)C2=O)cs1 (stereo partly drawn)
0.06

###

System: Acinetobacter baumannii ATCC 19606
Classify: 1 (yes) when MIC is strictly less than 0.2 mg/L; 0 (no) when MIC is not.

For orientation, consider the following solved cases.
compound	assayedTarget	group
Nc1nc(/C(=N/OC2(C(=O)O)CCOCC2)C(=O)N[C@H]2CON(C3(C(=O)O)C[C@H](N4Cc5cc(O)c(O)cc5C4=O)C(=O)O3)C2=O)cs1 (some centres unmarked)	Acinetobacter baumannii ATCC 19606	1 (yes)
Nc1nc(/C(=N/OC2(C(=O)O)CCOCC2)C(=O)N[C@H]2CON(C3(C(=O)O)C[C@H](N4C(=O)c5cc(O)c(O)cc5C4=O)C(=O)O3)C2=O)cs1 (some centres unmarked)	Acinetobacter baumannii ATCC 19606	1 (yes)
Nc1nc(/C(=N/OC2(C(=O)O)CCOCC2)C(=O)N[C@H]2CON(C3(C(=O)O)C[C@H](N4C(=O)c5cc(O)c(O)nc5C4=O)C(=O)O3)C2=O)cs1 (some centres unmarked)	Acinetobacter baumannii ATCC 19606	0 (no)

A record lists CC(C)(O/N=C(\C(=O)N[C@H]1CON(C2(C(=O)O)C[C@H](N3C(=O)c4cc(O)c(O)nc4C3=O)C(=O)O2)C1=O)c1csc(N)n1)C(=O)O (some centres unmarked) . Is its MIC below 0.2 mg/L?
1 (yes)

How about this compound: CC(C)(O/N=C(\C(=O)N[C@@H]1C(=O)N2C(C(=O)[O-])=C(C[n+]3ccccc3)CS[C@H]12)c1csc(N)n1)C(=O)O [Ceftazidime, ceftazidime, reference compound]
0 (no)

How about this compound: CN1CCC(O/N=C(\C(=O)N[C@H]2CON(C3(C(=O)O)C[C@H](N4C(=O)c5cc(O)c(O)cc5C4=O)C(=O)O3)C2=O)c2csc(N)n2)(C(=O)O)CC1 (some centres unmarked)
0 (no)

How about this compound: Nc1nc(/C(=N/OC2(C(=O)O)CNC2)C(=O)N[C@H]2CON(C3(C(=O)O)C[C@H](N4C(=O)c5cc(O)c(O)cc5C4=O)C(=O)O3)C2=O)cs1 (some centres unmarked)
0 (no)

How about this compound: CC(C)(O/N=C(\C(=O)N[C@H]1CON(C2(C(=O)O)C[C@H](N3Cc4cc(O)c(O)cc4C3=O)C(=O)O2)C1=O)c1csc(N)n1)C(=O)O (some centres unmarked)
0 (no)

How about this compound: Nc1nc(/C(=N/OC2(C(=O)O)CCC2)C(=O)N[C@H]2CON(C3(C(=O)O)C[C@H](N4C(=O)c5cc(O)c(O)cc5C4=O)C(=O)O3)C2=O)cs1 (some centres unmarked)
1 (yes)

How about this compound: Nc1nc(/C(=N/OC2(C(=O)O)CC2)C(=O)N[C@H]2CON(C3(C(=O)O)C[C@H](N4C(=O)c5cc(O)c(O)cc5C4=O)C(=O)O3)C2=O)ns1 (some centres unmarked)
0 (no)

How about this compound: Nc1nc(/C(=N/OC2(C(=O)O)CC3CCC(C2)O3)C(=O)N[C@H]2CON(C3(C(=O)O)C[C@H](N4C(=O)c5cc(O)c(O)nc5C4=O)C(=O)O3)C2=O)cs1 (some centres unmarked)
0 (no)
